- target or test system: cellular cGAS activity in baculovirus-stimulated THP1-Dual cells (Homo sapiens (Human))
- Sequence (Q8N884 whole entry): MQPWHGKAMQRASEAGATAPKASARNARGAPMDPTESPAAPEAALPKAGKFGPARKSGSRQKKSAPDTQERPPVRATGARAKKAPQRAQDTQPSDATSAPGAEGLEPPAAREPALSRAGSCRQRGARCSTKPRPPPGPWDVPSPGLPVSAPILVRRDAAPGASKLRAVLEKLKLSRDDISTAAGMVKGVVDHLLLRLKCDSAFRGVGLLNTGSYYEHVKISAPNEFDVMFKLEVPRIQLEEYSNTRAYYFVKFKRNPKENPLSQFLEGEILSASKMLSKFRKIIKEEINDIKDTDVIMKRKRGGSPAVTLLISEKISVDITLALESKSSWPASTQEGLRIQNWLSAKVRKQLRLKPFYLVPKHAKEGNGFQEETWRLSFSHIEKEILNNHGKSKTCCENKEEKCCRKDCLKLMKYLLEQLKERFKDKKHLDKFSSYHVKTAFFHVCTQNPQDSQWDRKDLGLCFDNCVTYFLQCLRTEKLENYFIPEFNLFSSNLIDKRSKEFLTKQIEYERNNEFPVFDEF
- assay overview: Human cGAS cell assay (THP1(vir) IC50): IFN induction in virus-stimulated THP1-Dual cells, IRF Lucia luciferase reporter;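 also: Eight-point dilution series starting at 10 µM, 1% DMSO, 18 h at 37 °C, luminescence read-out, virus-free wells as 0% and DMSO-treated virus-stimulated wells as 100%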
- Format: cell-based
- stated conditions: Table 1; virus-stimulated THP1 cells; read-out: THP(vir) IC50
pIC50: −log10 of the molar value.
Where pIC50 equals or exceeds 7, the correct label is Condition met; where it does not, the label is Condition not met.

{"compound": "COc1ncccc1-c1cnc2c(c1)[C@@]1(F)CCN(C[C@@H]1C)C(=O)CCCOCCc1nc(c3oc4ccccc4c3n1)N1C[C@H](C[C@H]1C(=O)O)O2", "assigned category": "Condition met"}
{"compound": "C[C@H]1CN2CC[C@]1(F)c1cc(Cl)cnc1O[C@H]1C[C@@H](C(=O)O)N(C1)c1nc(nc3c1oc1ccccc13)COCCCCCC2=O", "assigned category": "Condition not met"}
{"compound": "C[C@H]1CCCOCc2nc(c3oc4ccccc4c3n2)N2C[C@H](C[C@H]2C(=O)O)Oc2ncc(Cl)cc2[C@@]2(F)CCN(C[C@@H]2C)C1=O (single isomer, unassigned)", "assigned category": "Condition not met"}

###

- target or test system: Human cGAS enzyme (Homo sapiens (Human), UniProt Q8N884)
- Sequence (Q8N884 whole entry): as above
- assay overview: Human cGAS enzyme assay (hcGAS IC50, in vitro), cGAMP formation by RapidFire MS;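 also: recombinant human cGAS activated by 45 bp dsDNA with 30 µM each ATP and GTP, 90 min, cGAMP vs cyclic-di-GMP standard by MS, 8-point titration from 10 µM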
- Assay type: biochemical
- stated conditions: Table 1
pIC50: −log10 of the molar value.
readout type: pIC50

{"compound": "C[C@H]1CN2CC[C@]1(F)c1cc(Cl)cnc1O[C@H]1C[C@@H](C(=O)O)N(C1)c1nc(nc3c1oc1ccccc13)C(F)(F)CCCCC(F)(F)C2=O [Example 06]", "quantitative result": 7.74}
{"compound": "C[C@H]1CN2CC[C@]1(F)c1cc(Cl)cnc1O[C@H]1C[C@@H](C(=O)O)N(C1)c1nc(nc3c1oc1ccccc13)CCCCCC2=O [Example 36]", "quantitative result": 8.15}
{"compound": "C[C@H]1COCCCc2nc(c3oc4ccccc4c3n2)N2C[C@H](C[C@H]2C(=O)O)Oc2ncc(Br)cc2[C@@]2(F)CCN(C[C@@H]2C)C1=O [Example 25]", "quantitative result": 8.15}
{"compound": "C[C@H]1CN2CC[C@]1(F)c1cc(Cl)cnc1O[C@H]1C[C@@H](C(=O)O)N(C1)c1nc(nc3c1oc1ccccc13)COCCCOC2=O [Example 13]", "quantitative result": 7.66}
{"compound": "C[C@H]1CN2CC[C@]1(F)c1cccnc1O[C@H]1C[C@@H](C(=O)O)N(C1)c1nc(nc3c1oc1ccccc13)CCCOCCC2=O [Example 24]", "quantitative result": 7.55}
{"compound": "C[C@H]1CN2CC[C@]1(F)c1cc(Cl)cnc1O[C@H]1C[C@@H](C(=O)O)N(C1)c1nc(nc3c1oc1ccccc13)CCOCCOC2=O [Example 34]", "quantitative result": 8.10}
{"compound": "C[C@H]1CN2CC[C@]1(F)c1cc(Cl)cnc1O[C@H]1C[C@@H](C(=O)O)N(C1)c1nc(nc3c1oc1ccccc13)C(F)(F)CCCCCC2=O [Example 05]", "quantitative result": 7.92}
{"compound": "C[C@H]1CN2CC[C@]1(F)c1cc(Cl)cnc1O[C@H]1C[C@@H](C(=O)O)N(C1)c1nc(nc3c1oc1ccccc13)COCCCCCC2=O [Example 12]", "quantitative result": 7.77}
{"compound": "C[C@H]1CN2CC[C@]1(F)c1cc(Cl)cnc1O[C@H]1C[C@@H](C(=O)O)N(C1)c1nc(nc3c1oc1ccccc13)CCCCOCC2=O [Example 27]", "quantitative result": 8.30}
{"compound": "CC#Cc1cnc2c(c1)[C@@]1(F)CCN(C[C@@H]1C)C(=O)COCCCCc1nc(c3oc4ccccc4c3n1)N1C[C@H](C[C@H]1C(=O)O)O2 [Example 29]", "quantitative result": 7.85}
{"compound": "C[C@H]1CN2CC[C@]1(F)c1cc(Cl)cnc1O[C@H]1C[C@@H](C(=O)O)N(C1)c1nc(nc3c1oc1cc(F)ccc13)CCCCOCC2=O [Example 30]", "quantitative result": 8.15}
{"compound": "C[C@H]1CN2CC[C@]1(F)c1cc(Cl)cnc1O[C@H]1C[C@@H](C(=O)O)N(C1)c1nc(nc3c1oc1ccccc13)CC(=O)NCCCC2=O [Example 01]", "quantitative result": 7.60}
{"compound": "C[C@H]1CN2CC[C@]1(F)c1cc(Cl)cnc1O[C@H]1C[C@@H](C(=O)O)N(C1)c1nc(nc3c1oc1ccccc13)CC(=O)NCCOC2=O [Example 02]", "quantitative result": 7.77}
{"compound": "C[C@H]1CCCOCc2nc(c3oc4ccccc4c3n2)N2C[C@H](C[C@H]2C(=O)O)Oc2ncc(Cl)cc2[C@@]2(F)CCN(C[C@@H]2C)C1=O (single isomer, unassigned) [Example 09]", "quantitative result": 7.35}
{"compound": "C[C@H]1CN2CC[C@]1(F)c1cc(Cl)cnc1O[C@H]1C[C@@H](C(=O)O)N(C1)c1nc(nc3c1oc1ccccc13)COCCCCC2=O [Example 08]", "quantitative result": 7.66}
{"compound": "C[C@H]1CN2CC[C@]1(F)c1cc(Cl)cnc1O[C@H]1C[C@@H](C(=O)O)N(C1)c1nc(nc3c1oc1ccccc13)C(F)(F)OCCCCC2=O [Example 15]", "quantitative result": 7.96}
{"compound": "CC(=O)c1cnc2c(c1)[C@@]1(F)CCN(C[C@@H]1C)C(=O)CCCOCCc1nc(c3oc4ccccc4c3n1)N1C[C@H](C[C@H]1C(=O)O)O2 [Example 19]", "quantitative result": 8.10}
{"compound": "O=C(O)[C@@H]1C[C@H]2CN1c1nc(nc3c1oc1ccccc13)C(F)(F)CCCCCC(=O)N1CCC(F)(CC1)c1cc(Cl)cnc1O2 [Example 07]", "quantitative result": 7.00}
{"compound": "C[C@@H]1COCCCc2nc(c3oc4ccccc4c3n2)N2C[C@H](C[C@H]2C(=O)O)Oc2ncc(Br)cc2[C@@]2(F)CCN(C[C@@H]2C)C1=O [Example 26]", "quantitative result": 7.74}
{"compound": "COc1cc(-c2cnc3c(c2)[C@@]2(F)CCN(C[C@@H]2C)C(=O)CCCOCCc2nc(c4oc5ccccc5c4n2)N2C[C@H](C[C@H]2C(=O)O)O3)c(F)cn1 [Example 20.03]", "quantitative result": 7.74}
{"compound": "C[C@H]1CN2CC[C@]1(F)c1cc(Br)cnc1O[C@H]1C[C@@H](C(=O)O)N(C1)c1nc(nc3c1oc1ccccc13)CCOCCCC2=O [Example 17]", "quantitative result": 7.89}
{"compound": "C#Cc1cnc2c(c1)[C@@]1(F)CCN(C[C@@H]1C)C(=O)CCCOCCc1nc(c3oc4ccccc4c3n1)N1C[C@H](C[C@H]1C(=O)O)O2 [Example 18]", "quantitative result": 8.22}
{"compound": "C[C@H]1CN2CC[C@]1(F)c1cc(Cl)cnc1O[C@H]1C[C@@H](C(=O)O)N(C1)c1nc(nc3c1oc1ccccc13)COCCCC(F)(F)C2=O [Example 10]", "quantitative result": 7.17}
{"compound": "C[C@H]1CN2CC[C@]1(F)c1cc(Cl)cnc1O[C@H]1C[C@@H](C(=O)O)N(C1)c1nc(nc3c1oc1ccccc13)CCCCCOC2=O [Example 22]", "quantitative result": 7.35}
{"compound": "C[C@H]1CN2CC[C@]1(F)c1cc(Cl)cnc1O[C@H]1C[C@@H](C(=O)O)N(C1)c1nc(nc3c1oc1cc(F)ccc13)C(F)(F)CCCOCC2=O [Example 32]", "quantitative result": 8.30}
